Target: PIK3CD (Human) (UniProt O00329)
Sequence (O00329 whole entry, looked up): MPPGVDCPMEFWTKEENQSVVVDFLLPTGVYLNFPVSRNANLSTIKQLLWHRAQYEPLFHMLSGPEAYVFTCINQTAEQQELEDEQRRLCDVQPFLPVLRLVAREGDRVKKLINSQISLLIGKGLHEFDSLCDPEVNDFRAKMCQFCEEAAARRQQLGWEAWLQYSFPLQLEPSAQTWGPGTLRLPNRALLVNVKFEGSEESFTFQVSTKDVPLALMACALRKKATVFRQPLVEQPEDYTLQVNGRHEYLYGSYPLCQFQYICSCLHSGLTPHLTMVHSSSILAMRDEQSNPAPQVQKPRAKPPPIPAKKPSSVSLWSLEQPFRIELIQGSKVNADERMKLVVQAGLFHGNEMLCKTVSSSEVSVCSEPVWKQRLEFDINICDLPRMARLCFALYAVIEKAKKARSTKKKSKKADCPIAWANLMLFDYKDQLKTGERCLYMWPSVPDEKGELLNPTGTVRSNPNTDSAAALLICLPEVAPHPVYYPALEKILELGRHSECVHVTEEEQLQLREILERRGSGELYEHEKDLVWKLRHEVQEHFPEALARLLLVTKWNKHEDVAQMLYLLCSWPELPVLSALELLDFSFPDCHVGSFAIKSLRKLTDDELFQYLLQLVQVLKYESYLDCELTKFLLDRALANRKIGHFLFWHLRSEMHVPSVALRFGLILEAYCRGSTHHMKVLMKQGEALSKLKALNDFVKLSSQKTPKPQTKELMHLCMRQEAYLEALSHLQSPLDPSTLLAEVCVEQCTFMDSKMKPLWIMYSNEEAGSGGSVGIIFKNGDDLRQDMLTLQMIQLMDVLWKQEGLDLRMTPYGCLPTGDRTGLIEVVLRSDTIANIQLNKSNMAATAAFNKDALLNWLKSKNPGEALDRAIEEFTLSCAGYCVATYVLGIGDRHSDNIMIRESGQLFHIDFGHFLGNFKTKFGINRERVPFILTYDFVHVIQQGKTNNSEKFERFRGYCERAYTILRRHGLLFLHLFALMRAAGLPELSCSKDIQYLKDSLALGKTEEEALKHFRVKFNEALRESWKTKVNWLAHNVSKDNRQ
Assay: Enzyme Assay
measuredParameter: pIC50
Field pIC50 (float): negative decimal logarithm of the concentration in molar.

q: If you can, please state the reported pIC50 value of `Cc1nc(N)nc(N2C[C@@H](O)C[C@H]2c2nc3cccc(C(F)(F)F)c3c(=O)n2-c2cccnc2)c1C#N` .
a: 6.02

q: If you can, please state the reported pIC50 value of `Cc1nc(N)nc(N2CCC[C@H]2c2nc3cccc(Cl)c3c(=O)n2N2CCOCC2)c1C#N` .
a: 7.74

q: If you can, please state the reported pIC50 value of `Cc1ccc(-n2c([C@@H]3CSCN3c3ncnc4[nH]cnc34)nc3cccc(Cl)c3c2=O)s1` .
a: 6.85

q: If you can, please state the reported pIC50 value of `Nc1nc(N2CCC[C@H]2c2nc3cccc(Cl)c3c(=O)n2N2CCOCC2)c2nccn2n1` .
a: 7.66

q: If you can, please state the reported pIC50 value of `O=c1c2c(Cl)cccc2nc([C@@H]2CCCN2c2ncnc3[nH]cnc23)n1N1CCCCC1` .
a: 8.00

q: If you can, please state the reported pIC50 value of `N#Cc1c(N)ncnc1N1CCC[C@H]1c1nc2cccc(Cl)c2c(=O)n1C1CCOCC1` .
a: 8.10

q: If you can, please state the reported pIC50 value of `N#Cc1c(N)nc(N)nc1N1CCC[C@H]1c1nc2cccc(C(F)(F)F)c2c(=O)n1-c1ccccc1` .
a: 7.34

q: If you can, please state the reported pIC50 value of `Cc1nc(N)nc(N2C[C@@H](O)C[C@H]2c2nc3cccc(C(F)(F)F)c3c(=O)n2-c2cccc(F)c2)c1C#N` .
a: 7.62

====

Target: PIK3CA (human)
Experiment: Cell-Based Assay
Settings: rat-1
measuredParameter: IC50

q: If you can, please state the reported IC50 value of `Cc1nc(N)c(C#N)c(N2CCC[C@H]2c2nc3cccc(C(F)(F)F)c3c(=O)n2-c2ccccc2)n1` .
a: > 10 µM

q: If you can, please state the reported IC50 value of `N#Cc1c(N)ncnc1N1C[C@@H](O)C[C@H]1c1nc2ccc(F)c(Cl)c2c(=O)n1-c1ccccc1` .
a: 8.02 µM

q: If you can, please state the reported IC50 value of `Nc1nc(N2CCC[C@H]2c2nc3cccc(Cl)c3c(=O)n2-c2ccccc2)c2ncsc2n1` .
a: > 10 µM

q: If you can, please state the reported IC50 value of `N#Cc1c(N)ncnc1N1C[C@@H](O)C[C@H]1c1nc2cccc(C(F)(F)F)c2c(=O)n1-c1ccccc1` .
a: > 10 µM

q: If you can, please state the reported IC50 value of `O=c1c2c(Cl)cccc2nc([C@@H]2CCCN2c2ncnc3[nH]cnc23)n1N1CCOCC1` .
a: > 10 µM

q: If you can, please state the reported IC50 value of `Cn1nccc1-n1c([C@@H]2CSCN2c2ncnc(N)c2C#N)nc2cccc(Cl)c2c1=O` .
a: > 10 µM

q: If you can, please state the reported IC50 value of `Cc1ccc(-n2c([C@@H]3CSCN3c3ncnc4[nH]cnc34)nc3cccc(Cl)c3c2=O)s1` .
a: > 10 µM

q: If you can, please state the reported IC50 value of `Cc1nc(N)nc(N2C[C@@H](O)C[C@H]2c2nc3cccc(Cl)c3c(=O)n2C2CC2)c1C#N` .
a: 4.23 µM

q: If you can, please state the reported IC50 value of `CO[C@H]1C[C@@H](c2nc3cccc(Cl)c3c(=O)n2C2CC2)N(c2ncnc(N)c2C#N)C1` .
a: 3.23 µM

====

Target: PIK3CD (Human) (UniProt O00329)
Assay: Enzyme Assay
measuredParameter: pIC50
Field pIC50 (float): negative decimal logarithm of the concentration in molar.

q: # get_value(readout= pIC50, system= PIK3CD (Human) (UniProt O00329)) for `CO[C@H]1C[C@@H](c2nc3cccc(Cl)c3c(=O)n2N2CCOCC2)N(c2ncnc(N)c2C#N)C1`
a: 7.18

q: # get_value(readout= pIC50, system= PIK3CD (Human) (UniProt O00329)) for `Cc1nc(N)nc(N2C[C@@H](O)C[C@H]2c2nc3cccc(Cl)c3c(=O)n2C2CC2)c1C#N`
a: 6.66

q: # get_value(readout= pIC50, system= PIK3CD (Human) (UniProt O00329)) for `Nc1nc(N2CCC[C@H]2c2nc3cccc(Cl)c3c(=O)n2-c2cccnc2)c2nc[nH]c2n1`
a: 8.10

q: # get_value(readout= pIC50, system= PIK3CD (Human) (UniProt O00329)) for `N#Cc1c(N)ncnc1N1CCC[C@H]1c1nc2cccc(Cl)c2c(=O)n1C1CC1`
a: 8.15

q: # get_value(readout= pIC50, system= PIK3CD (Human) (UniProt O00329)) for `CO[C@H]1C[C@@H](c2nc3cccc(Cl)c3c(=O)n2-c2ccccc2)N(c2ncnc3[nH]cnc23)C1`
a: 7.96

====

Assign IC50 to each entry below.
Biological target: UniProtKB O00329
Experiment: Cell-Based Assay
Conditions: rat-1
Numeric answer only, unit nM assumed.

q: If you can, please state the reported IC50 value of `N#Cc1c(N)ncnc1N1CCC[C@H]1c1nc2cccc(O)c2c(=O)n1-c1ccccc1` .
a: 15

q: If you can, please state the reported IC50 value of `Cc1ccc(-n2c([C@@H]3CSCN3c3ncnc4[nH]cnc34)nc3cccc(Cl)c3c2=O)s1` .
a: 509

q: If you can, please state the reported IC50 value of `CO[C@H]1C[C@@H](c2nc3cccc(Cl)c3c(=O)n2-c2ccccc2)N(c2nc(N)nc(C)c2C#N)C1` .
a: 6

q: If you can, please state the reported IC50 value of `CO[C@H]1C[C@@H](c2nc3cccc(Cl)c3c(=O)n2-c2ccccc2)N(c2nc(N)nn3ccnc23)C1` .
a: 204

q: If you can, please state the reported IC50 value of `O=c1c2c(C(F)(F)F)cccc2nc([C@@H]2C[C@H](F)CN2c2ncnc3[nH]cnc23)n1-c1ccccc1` .
a: 33

q: If you can, please state the reported IC50 value of `N#Cc1c(N)ncnc1N1C[C@@H](O)C[C@H]1c1nc2cccc(F)c2c(=O)n1-c1ccccc1` .
a: 23

q: If you can, please state the reported IC50 value of `Cc1nc(N)nc(N2C[C@@H](O)C[C@H]2c2nc3cccc(C(F)(F)F)c3c(=O)n2-c2ccccc2)c1C#N` .
a: 8

q: If you can, please state the reported IC50 value of `Nc1nc(N2C[C@@H](O)C[C@H]2c2nc3cccc(C(F)(F)F)c3c(=O)n2-c2ccccc2)c2nccn2n1` .
a: 90

====

Biological target: PIK3CG (human)
Test: Enzyme Assay
pIC50: −log10 of the molar value.
Everything with pIC50 lower than 7 is Not met; everything else, including exactly 7, is Met.

q: Is reported pIC50 greater than or equal to 7 here: `N#Cc1c(N)ncnc1N1CCC[C@H]1c1nc2cccc(C(F)(F)F)c2c(=O)n1-c1cccc(F)c1`
a: Not met

q: Is reported pIC50 greater than or equal to 7 here: `N#Cc1c(N)ncnc1N1CCC[C@H]1c1nc2cccc(F)c2c(=O)n1-c1ccccc1`
a: Not met

q: Is reported pIC50 greater than or equal to 7 here: `CO[C@H]1C[C@@H](c2nc3cccc(Cl)c3c(=O)n2C2CC2)N(c2ncnc(N)c2C#N)C1`
a: Not met

q: Is reported pIC50 greater than or equal to 7 here: `N#Cc1c(N)ncnc1N1CCC[C@H]1c1nc2cccc(Cl)c2c(=O)n1N1CCOCC1`
a: Not met

q: Is reported pIC50 greater than or equal to 7 here: `CO[C@H]1C[C@@H](c2nc3cccc(Cl)c3c(=O)n2-c2ccccc2)N(c2ncnc(N)c2C#N)C1`
a: Met

q: Is reported pIC50 greater than or equal to 7 here: `Nc1nc(N2C[C@@H](F)C[C@H]2c2nc3cccc(C(F)(F)F)c3c(=O)n2-c2cccc(F)c2)c2nc[nH]c2n1`
a: Met

q: Is reported pIC50 greater than or equal to 7 here: `Cc1nc(N)nc(N2CCC[C@H]2c2nc3ccc(F)c(C)c3c(=O)n2-c2ccccc2)c1C#N`
a: Met

Values compiled from the Kinase Knowledgebase extract (Sharma et al. 2016).
